Reported Avg % Deletion is given for each of the following sequences.
Tested on: TTR
protocol-text: TTR editing in HepG2 cells transfected with Spy Cas9 mRNA and dgRNAs (Table 6)
Format: cell-based, human
condition-context: HepG2 cells co-transfected with Spy Cas9 mRNA (SEQ ID NO:2) and dgRNAs
Express it in %; write the number only.

Report Avg % Deletion for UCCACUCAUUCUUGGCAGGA (tested as dual guide RNA, chemistry not given here) [CR005298] please.
21.36

Report Avg % Deletion for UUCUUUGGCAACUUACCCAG (tested as dual guide RNA, chemistry not given here) [CR003357] please.
3.46

Report Avg % Deletion for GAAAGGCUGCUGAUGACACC (tested as dual guide RNA, chemistry not given here) [CR003352] please.
4.77

Report Avg % Deletion for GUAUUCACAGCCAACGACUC (tested as dual guide RNA, chemistry not given here) [CR003373] please.
1.77

Report Avg % Deletion for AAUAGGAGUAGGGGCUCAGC (tested as dual guide RNA, chemistry not given here) [CR003384] please.
0.25

src = patent US11795460B2
